Kindly state Selectivity ratio for each of the entries shown.
- test: Selectivity ratio (Prostanoid EP3 receptor/Prostanoid EP4 receptor) was determined
// return a plain number; no unit text

Incoming: Selectivity ratio lookup needed for "COCc1cccc(C[C@H](O)/C=C/[C@H]2[C@H](O)CC(=O)[C@@H]2SCCCSCC(=O)O)c1" , thanks.
Outgoing: 120

Incoming: Selectivity ratio lookup needed for "COc1cccc(C[C@H](O)/C=C/[C@H]2[C@H](O)CC(=O)[C@@H]2SCCCSCC(=O)O)c1" , thanks.
Outgoing: 50

Incoming: Selectivity ratio lookup needed for "CSCc1cccc(C[C@H](O)/C=C/[C@H]2[C@H](O)CC(=O)[C@@H]2SCCCSCC(=O)O)c1" , thanks.
Outgoing: 70

Incoming: Selectivity ratio lookup needed for "CCOCc1cccc(C[C@H](O)/C=C/[C@H]2[C@H](O)CC(=O)[C@@H]2SCCCSCC(=O)O)c1" , thanks.
Outgoing: 450

Incoming: Selectivity ratio lookup needed for "COc1ccccc1C[C@H](O)/C=C/[C@H]1[C@H](O)CC(=O)[C@@H]1SCCCSCC(=O)O" , thanks.
Outgoing: 50

Incoming: Selectivity ratio lookup needed for "COc1ccc(C[C@H](O)/C=C/[C@H]2[C@H](O)CC(=O)[C@@H]2SCCCSCC(=O)O)cc1" , thanks.
Outgoing: 50
